# Test system: UACC-257
# experiment: NCI tumour cell line growth inhibition, 48 h
Active and inactive are the calls of the source. No stated cut-off is given here; in the data, active = GI50 up to about 1.1 µM and inactive = higher.
Could you please pick one outcome from this set? active, inactive

Problem: Short answer needed: outcome of this test for COc1ccc2c(c1)CC[C@@H]1C2CC[C@]2(C)C(=O)N(CCN3CCCCC3)C(=O)CC12 (stereo partly specified) ?
Solution: inactive

Problem: Short answer needed: outcome of this test for "O=c1c2cc3c(cc2[nH]c2ncccc12)OCO3" ?
Solution: inactive

Problem: Short answer needed: outcome of this test for "C#CC1(O)c2ccccc2C(=O)c2ccccc21" ?
Solution: inactive

Problem: Short answer needed: outcome of this test for "CC1(C)C(C#N)=[N+]([O-])C(C)(C)N1O" ?
Solution: inactive

Problem: Short answer needed: outcome of this test for "CCOC(=O)NC(=O)c1cn(CCCOC(=O)NCCCCCCNC(=O)OCCCn2cc(C(=O)NC(=O)OCC)c(=O)[nH]c2=O)c(=O)[nH]c1=O" ?
Solution: inactive

Problem: Short answer needed: outcome of this test for "c1ccc(COc2ccc(C[P+](c3ccccc3)(c3ccccc3)c3ccccc3)cc2)cc1" ?
Solution: active

* * *

Field: GI50. Provide a value for each of the molecules that follow.
# Test system: A498
# experiment: NCI tumour cell line growth inhibition, 48 h
Active and inactive are the calls of the source. No stated cut-off is given here; in the data, active = GI50 up to about 1.1 µM and inactive = higher.

Problem: Return GI50 measured with A498 given this molecule: "O=C(O)/C(Cc1c[nH]nn1)=N\O"
Solution: > 100 µM (inactive)

Problem: Return GI50 measured with A498 given this molecule: COc1cc2c(cc1O)C(c1cc(O)c(O)c(OC)c1)C(O)(C(=O)O)C(CO)C2O (stereo unspecified)
Solution: > 100 µM (inactive)

Problem: Return GI50 measured with A498 given this molecule: "ClCCN1CCOC1=C1C=CC=C1"
Solution: > 100 µM (inactive)

Problem: Return GI50 measured with A498 given this molecule: "O=c1c2cc3c(cc2[nH]c2ncccc12)OCO3"
Solution: > 10 µM (inactive)

Problem: Return GI50 measured with A498 given this molecule: COC1=CC(=O)c2c(cc(COP(N)(=O)N(CCBr)CCBr)n2C)C1=O (stereo unspecified)
Solution: 1.26 µM (inactive)

Problem: Return GI50 measured with A498 given this molecule: "O=C(O)CCc1ccc2c(c1)CC1(Cc3ccccc3C1)C2"
Solution: > 100 µM (inactive)

Problem: Return GI50 measured with A498 given this molecule: "COCOc1cc(OCOC)cc(C(=O)Oc2ccccc2)c1"
Solution: > 100 µM (inactive)

Problem: Return GI50 measured with A498 given this molecule: "CCCCCCOc1ccc(C(=O)NOC)cc1"
Solution: 99.1 µM (inactive)

Problem: Return GI50 measured with A498 given this molecule: Cc1ccc(OC2CC(n3cnc4c(=O)[nH]c(Br)nc43)OC2Oc2ccc(C)cc2)cc1 (stereo unspecified)
Solution: > 100 µM (inactive)

Problem: Return GI50 measured with A498 given this molecule: COC(=O)C(NC(=O)c1ccccc1)c1ccco1 (stereo unspecified)
Solution: > 100 µM (inactive)

Problem: Return GI50 measured with A498 given this molecule: CC(C)(C)OC(=O)CCC1NC(=O)[C@@H]2Cc3c([nH]c4ccccc34)C(C3CCCCC3)N2C1=O (stereo partly specified)
Solution: 60.5 µM (inactive)

Problem: Return GI50 measured with A498 given this molecule: Cc1ccccc1NC(=O)C(=O)C(C1OC(=O)c2ccccc21)[N+](=O)[O-] (stereo unspecified)
Solution: > 100 µM (inactive)

Problem: Return GI50 measured with A498 given this molecule: CC(C)(C)OC(=O)CCCCCNC(=O)CCCCCNC(=O)CCC(CN(CC(=O)OCc1ccccc1)CC(=O)OCc1ccccc1)N(CC(=O)OCc1ccccc1)CC(=O)OCc1ccccc1 (stereo unspecified)
Solution: > 100 µM (inactive)

Problem: Return GI50 measured with A498 given this molecule: "CCN(CC)CCCNc1nc(=O)[nH]c(C)c1C(=O)Nc1c2ccccc2nc2ccccc12"
Solution: 5.22 µM (inactive)

Problem: Return GI50 measured with A498 given this molecule: "COc1ccccc1NC(=S)N/N=C(/c1ccccc1)c1ccccn1"
Solution: 1.38 µM (inactive)

Problem: Return GI50 measured with A498 given this molecule: CC(=O)c1ccc(NC(=O)C(=O)C(C(=O)/C=C/c2ccccc2)C2OC(=O)c3ccccc32)cc1 (stereo unspecified)
Solution: > 100 µM (inactive)

Problem: Return GI50 measured with A498 given this molecule: CC[C@]12C=CCN3CCC4(c5cc(/N=N/c6ccc([N+](=O)[O-])cc6)c(OC)cc5N(C)[C@H]4[C@@](O)(C(=O)OC)[C@@H]1OC(C)=O)[C@@H]32 (stereo partly specified)
Solution: 14.1 µM (inactive)

Problem: Return GI50 measured with A498 given this molecule: "O=[N+]([O-])/C(Cl)=C(\NCCO)C(Cl)=C(Cl)Cl"
Solution: > 100 µM (inactive)

Problem: Return GI50 measured with A498 given this molecule: O=C(CC(=O)c1cccc2ccccc12)C(=O)NC1C2CC3CC(C2)CC1C3 (stereo unspecified)
Solution: > 100 µM (inactive)

Problem: Return GI50 measured with A498 given this molecule: Fc1ccc2nc3n(c2c1)C(c1c(Cl)cccc1Cl)SC3 (stereo unspecified)
Solution: > 100 µM (inactive)

Problem: Return GI50 measured with A498 given this molecule: "O=c1nc2ccc3sc4ccccc4c(=O)c3n2c(=O)[nH]1"
Solution: > 100 µM (inactive)

Entry source: ChEMBL document CHEMBL1201862
